# maps each entry to its cGMP response rel. to 1 uM CNP22; 10 nM peptide, NIH3T3 cells
target_system: T1, NPR-B (natriuretic peptide receptor B), murine, expressed endogenously on NIH3T3 cells (murine, UniProt Q6VVW5 17-1047)
T1 sequence (looked up): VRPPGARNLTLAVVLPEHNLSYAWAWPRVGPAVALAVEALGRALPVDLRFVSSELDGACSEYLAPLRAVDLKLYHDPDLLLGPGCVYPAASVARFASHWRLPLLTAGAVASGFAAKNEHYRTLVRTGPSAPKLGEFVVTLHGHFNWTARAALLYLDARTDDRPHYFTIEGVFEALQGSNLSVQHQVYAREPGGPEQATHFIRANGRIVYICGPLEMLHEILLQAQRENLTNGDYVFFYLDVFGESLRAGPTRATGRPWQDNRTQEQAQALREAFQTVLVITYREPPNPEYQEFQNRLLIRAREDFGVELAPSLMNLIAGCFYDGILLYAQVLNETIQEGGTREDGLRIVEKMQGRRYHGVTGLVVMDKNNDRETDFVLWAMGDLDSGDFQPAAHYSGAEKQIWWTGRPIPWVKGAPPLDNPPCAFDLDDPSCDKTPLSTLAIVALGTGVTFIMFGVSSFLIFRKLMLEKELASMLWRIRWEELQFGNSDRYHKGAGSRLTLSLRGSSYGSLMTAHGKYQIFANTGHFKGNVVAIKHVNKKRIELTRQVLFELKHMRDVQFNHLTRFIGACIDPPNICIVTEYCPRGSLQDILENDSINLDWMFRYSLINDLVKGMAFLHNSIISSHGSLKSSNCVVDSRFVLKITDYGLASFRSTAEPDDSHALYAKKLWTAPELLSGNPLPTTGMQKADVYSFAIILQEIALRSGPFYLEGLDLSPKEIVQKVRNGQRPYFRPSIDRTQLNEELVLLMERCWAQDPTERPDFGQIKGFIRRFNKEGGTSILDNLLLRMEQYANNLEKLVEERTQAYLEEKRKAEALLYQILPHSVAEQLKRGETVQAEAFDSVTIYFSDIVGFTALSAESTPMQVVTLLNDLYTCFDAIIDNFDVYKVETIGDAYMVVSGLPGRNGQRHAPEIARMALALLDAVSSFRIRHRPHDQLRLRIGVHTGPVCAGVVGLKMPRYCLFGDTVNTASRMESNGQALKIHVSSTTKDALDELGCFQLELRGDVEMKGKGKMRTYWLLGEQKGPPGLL
method_description: cell-based or functional assay
Bridges are numbered along the chain shown (N, C = ends). Where no end group is shown, it is not given here. The star is where a group is joined. Heptanoyl = CCCCCCC(=O)*

GLSRGCFGLRLDRIGSMSGLGC (ends and bridges not checked; also: dimer joined N-terminus to N-terminus by Bis-PEO5) [CNP22, K4R, K10R, N-term.--N-term. dimer/Bis-PEO5] = 19 rel. to 1 uM CNP22 (100)
RGLSRGCFGLKLDRIGSMSGLGC [R-CNP22, K4R] = 54 rel. to 1 uM CNP22 (100)
SPKMVQGSGCFGLKLDRIGSMSGLGCKVLRRH (disulfide 10-26 (inferred)) [SPKMVQGSG-CNP17-KVLRRH (BNP tails)] = 25 rel. to 1 uM CNP22 (100)
GANQQGLSRGCFGLKLDRIGSMSGLGC [GANQQ-CNP22, K4R] = 44 rel. to 1 uM CNP22 (100)
Heptanoyl-ELSKGCFGLKLDRIGSMSGLGC (ends and bridges not checked) [Heptanoic acid (N-term.)-CNP22, G1E] = 32 rel. to 1 uM CNP22 (100)
GQEHPNARKYKGANQQGLSKGCFGLKLDRIGSMSGLGC (ends and bridges not checked; cysteine pairing not given here) [GQEHPNARKYKGANQQ-CNP22 (modified CNP37)] = 9 rel. to 1 uM CNP22 (100)
GSTGQWHSESGANQQGLSRGCFGLKLDRIGSMSGLGC [GSTGQWHSESGANQQ-CNP22, K4R (fibrinogen)] = 2 rel. to 1 uM CNP22 (100)

Incoming: Give its cGMP response rel. to 1 uM CNP22; 10 nM peptide, NIH3T3 cells value. Item: GHHSHEQHPHGANQQGLSKGCFGLKLDRIGSMSGLGC [GHHSHEQHPHGANQQ-CNP22 (HRGP fragment)]
Outgoing: 16 rel. to 1 uM CNP22 (100)
